FYI, the data here is from ChEMBL document CHEMBL4808163.

- subject.of.test: Mu-type opioid receptor (Homo sapiens, UniProt P35372)
- Sequence (P35372 whole entry): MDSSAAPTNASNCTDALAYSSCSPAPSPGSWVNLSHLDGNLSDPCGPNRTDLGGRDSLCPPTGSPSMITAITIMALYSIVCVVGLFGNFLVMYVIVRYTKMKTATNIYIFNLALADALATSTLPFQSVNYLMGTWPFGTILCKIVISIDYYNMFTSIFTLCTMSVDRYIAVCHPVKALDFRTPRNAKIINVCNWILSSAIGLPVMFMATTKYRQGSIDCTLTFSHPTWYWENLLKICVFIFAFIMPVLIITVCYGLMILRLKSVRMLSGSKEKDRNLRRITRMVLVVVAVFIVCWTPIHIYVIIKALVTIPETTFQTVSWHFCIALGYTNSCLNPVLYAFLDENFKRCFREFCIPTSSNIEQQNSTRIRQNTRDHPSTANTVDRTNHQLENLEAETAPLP
- assay.details: Displacement of [3H]DAMGO from human recombinant mu receptor at 10 uM after 120 mins by scintillation counting analysis relative to control
- conditions: probe [3H]DAMGO
Criterion: inhibition at 2 h, 10 µM meeting or surpassing 10%. Met: label 1. Not met: label 0.

Exam item: Is inhibition at 2 h, 10 µM at least 10%? Consider C/C(=N\Nc1nc2ccccc2s1)c1cc(OCCN(C)C)ccn1
Marked response: label 1

Exam item: Is inhibition at 2 h, 10 µM at least 10%? Consider C/C(=N\Nc1nc2ccccc2o1)c1ccccn1
Marked response: label 0

Exam item: Threshold query (inhibition at 2 h, 10 µM >= 10%) on C/C(=N\Nc1nc2ccccc2s1)c1ccccn1
Marked response: label 1

Exam item: Decide: is the reported value of inhibition at 2 h, 10 µM for C/C(=N\Nc1nc2ccccc2n1C)c1ccccn1 equal to or greater than 10%?
Marked response: label 1

Exam item: Is it the case that C/C(=N\Nc1nc2ccccc2o1)c1cc(OCCN(C)C)ccn1 has inhibition at 2 h, 10 µM reaching or exceeding 10%?
Marked response: label 0

Exam item: # check: inhibition at 2 h, 10 µM of C/C(=N\Nc1nccn1C)c1ccccn1 is greater than or equal to 10%
Marked response: label 0

Exam item: hey, is inhibition at 2 h, 10 µM for this one >= 10%? C/C(=N\Nc1nc2ccccc2s1)c1ncccn1
Marked response: label 0

Exam item: Form field: inhibition at 2 h, 10 µM at least 10%? Entry: C/C(=N\Nc1nc2ccccc2n1C)c1ncccn1
Marked response: label 1
